Reference for the values: ChEMBL document CHEMBL3991601

TARGET OR TEST SYSTEM: TRAF2 and NCK-interacting protein kinase (Homo sapiens, UniProt Q9UKE5); further: in the data inactive means no Kd found up to 30 µM
Sequence (Q9UKE5 whole entry): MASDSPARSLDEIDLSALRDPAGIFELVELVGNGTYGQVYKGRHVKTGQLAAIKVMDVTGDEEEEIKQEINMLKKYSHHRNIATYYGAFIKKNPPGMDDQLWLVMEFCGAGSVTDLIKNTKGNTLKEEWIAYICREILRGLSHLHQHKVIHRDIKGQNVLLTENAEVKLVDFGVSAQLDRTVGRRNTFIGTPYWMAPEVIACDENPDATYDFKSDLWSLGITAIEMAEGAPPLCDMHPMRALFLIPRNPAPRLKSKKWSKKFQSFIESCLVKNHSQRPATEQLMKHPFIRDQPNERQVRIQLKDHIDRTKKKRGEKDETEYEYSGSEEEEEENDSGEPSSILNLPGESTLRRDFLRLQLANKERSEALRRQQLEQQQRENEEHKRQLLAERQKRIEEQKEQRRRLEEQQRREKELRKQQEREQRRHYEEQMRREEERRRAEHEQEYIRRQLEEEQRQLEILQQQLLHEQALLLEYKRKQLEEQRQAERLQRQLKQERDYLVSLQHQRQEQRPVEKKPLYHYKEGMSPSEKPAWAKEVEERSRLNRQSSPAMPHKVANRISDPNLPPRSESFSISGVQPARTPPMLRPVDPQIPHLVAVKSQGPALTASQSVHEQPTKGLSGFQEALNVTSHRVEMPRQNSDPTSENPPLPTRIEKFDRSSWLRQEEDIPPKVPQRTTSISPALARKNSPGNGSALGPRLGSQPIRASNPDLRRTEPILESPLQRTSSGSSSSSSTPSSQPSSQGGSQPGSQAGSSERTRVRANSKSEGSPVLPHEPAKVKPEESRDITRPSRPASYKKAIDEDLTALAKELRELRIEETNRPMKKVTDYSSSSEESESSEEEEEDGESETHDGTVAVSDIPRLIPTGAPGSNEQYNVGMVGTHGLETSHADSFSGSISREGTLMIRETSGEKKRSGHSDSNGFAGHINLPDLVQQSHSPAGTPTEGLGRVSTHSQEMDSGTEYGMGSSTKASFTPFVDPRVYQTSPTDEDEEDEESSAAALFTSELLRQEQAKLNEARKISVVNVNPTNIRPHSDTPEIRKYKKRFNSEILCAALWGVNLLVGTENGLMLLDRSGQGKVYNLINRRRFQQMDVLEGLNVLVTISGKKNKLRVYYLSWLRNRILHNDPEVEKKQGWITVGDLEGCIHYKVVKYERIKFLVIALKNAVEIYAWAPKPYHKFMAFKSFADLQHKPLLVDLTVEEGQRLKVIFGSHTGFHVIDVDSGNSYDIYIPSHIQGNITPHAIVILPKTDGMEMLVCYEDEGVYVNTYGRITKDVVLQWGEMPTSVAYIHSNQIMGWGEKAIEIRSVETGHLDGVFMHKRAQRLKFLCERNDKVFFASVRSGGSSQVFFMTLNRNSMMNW
Active and inactive are the calls of the source.
MEASURE: Kd

Take a look at these entries with their results.
Request: Which Kd reading was recorded for the compound Cc1cc(-c2cc(O)ccc2Cl)cc2nnc(Nc3ccc(OCCN4CCCC4)cc3)nc12 ?
Result: > 30 µM (inactive)

Request: Can you look up the measured Kd of CCN1CCN(Cc2ccc(-c3cc4c(N[C@H](C)c5ccccc5)ncnc4[nH]3)cc2)CC1 for me?
Result: > 30 µM (inactive)

Request: Reported Kd, compound Cc1cc2c(F)c(Oc3ncnn4cc(OC[C@@H](C)OC(=O)[C@H](C)N)c(C)c34)ccc2[nH]1 [BRIVANIB ALANINATE] : ____
Result: > 30 µM (inactive)

Continuing:
Request: Could you share which Kd value was measured for CNC(=O)CN1CCC(Oc2cc3c(Nc4cccc(Cl)c4F)ncnc3cc2OC)CC1 ?
Result: > 30 µM (inactive)

Request: Entry COc1ccc(-c2ccc3c(N4CCOC[C@@H]4C)nc(N4CCOC[C@@H]4C)nc3n2)cc1CO : reported Kd = ?
Result: > 30 µM (inactive)

Request: What Kd value was documented for this compound, Cn1cc(-c2ccc3nnc(C(F)(F)c4ccc5ncccc5c4)n3n2)cn1 ?
Result: > 30 µM (inactive)

Request: Bench note: what Kd did CCCS(=O)(=O)Nc1ccc(F)c(C(=O)c2c[nH]c3ncc(-c4ccc(Cl)cc4)cc23)c1F show?
Result: > 30 µM (inactive)

Request: Which Kd is listed for CCn1c(=O)c(-c2cc[nH]n2)cc2c(C)nc(N)nc21 ?
Result: > 30 µM (inactive)

====

TARGET OR TEST SYSTEM: UniProt:Q9NWZ3
Sequence (Q9NWZ3 whole entry): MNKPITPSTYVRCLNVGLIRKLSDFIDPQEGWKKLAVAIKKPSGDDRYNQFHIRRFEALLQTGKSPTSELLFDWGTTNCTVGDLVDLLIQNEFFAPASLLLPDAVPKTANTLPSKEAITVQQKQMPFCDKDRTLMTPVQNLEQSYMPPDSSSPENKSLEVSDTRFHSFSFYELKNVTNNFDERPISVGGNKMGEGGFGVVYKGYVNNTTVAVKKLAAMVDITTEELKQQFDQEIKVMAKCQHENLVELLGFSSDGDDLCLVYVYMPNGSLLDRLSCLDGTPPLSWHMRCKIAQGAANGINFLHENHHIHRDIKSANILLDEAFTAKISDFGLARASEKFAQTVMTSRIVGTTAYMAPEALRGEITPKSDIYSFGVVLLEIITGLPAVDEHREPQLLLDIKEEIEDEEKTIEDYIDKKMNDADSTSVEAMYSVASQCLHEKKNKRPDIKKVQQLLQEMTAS
Active and inactive are the calls of the source.
One label from this list, please: 1.0 (active), 0.0 (inactive)

See these solved cases before continuing.
Request: Give the logged outcome of this assay for the following compound: Cc1cc([C@@H](C)Nc2ccccc2C(=O)O)c2nc(N3CCOCC3)cc(=O)n2c1 [AZD-6482]
Result: 0.0

Request: Lab log entry: CNC(=O)CN1CCC(Oc2cc3c(Nc4cccc(Cl)c4F)ncnc3cc2OC)CC1 [SAPITINIB] — outcome as called in the assay?
Result: 0.0

Request: Answer briefly: the call reported for COC(=O)N[C@@H](C)CNc1nccc(-c2cn(C(C)C)nc2-c2cc(Cl)cc(NS(C)(=O)=O)c2F)n1 [ENCORAFENIB] in this assay.
Result: 0.0

---
Request: Status in this test for CCn1c(=O)c(-c2cc[nH]n2)cc2c(C)nc(N)nc21 [VOXTALISIB] ?
Result: 0.0

Request: Recorded test call requested for C[C@@H]1CN(Cc2ccc(F)cc2)[C@@H](C)CN1C(=O)c1cc2c(C(=O)C(=O)N(C)C)cn(C)c2cc1Cl [TALMAPIMOD]
Result: 0.0

Request: // param item: CN1CCC(CNc2ccc3ncc(-c4cccc(OC(F)(F)F)c4)n3n2)CC1 [SGI-1776] ; yields the recorded call
Result: 0.0

Request: What classification did COc1cc2nccc(Oc3ccc(NC(=O)NC4CC4)c(Cl)c3)c2cc1C(N)=O [LENVATINIB] end up with in this test?
Result: 0.0

Request: Returns: the outcome recorded for O=C1NC(=O)/C(=C/c2ccc3nccc(-c4ccncc4)c3c2)S1 [GSK-1059615] in this assay.
Result: 0.0

Request: Fill in: this test's call for CNS(=O)(=O)Nc1nccc(Cc2c(C)c3ccc(Oc4ncccn4)cc3oc2=O)c1F [AVUTOMETINIB] is ___
Result: 0.0

Request: Hi, do you know how Cc1c(F)cc(C(=O)NC2CC2)cc1-c1ccc(C(=O)NCC(C)(C)C)cn1 [LOSMAPIMOD] came out in this test?
Result: 0.0

Request: Entry CNC(=O)c1ccc(-c2cnc3ncc(Cc4ccc5ncccc5c4)n3n2)cc1F [CAPMATINIB] : call = ?
Result: 0.0
